Attribution: patent US20260167656A1

# Test system: non-small cell lung cancer cell line H460
# Protocol text: In vitro human cancer cell line cytotoxicity (proliferation) assay in H460, CellTiter-Glo, 72 hours
# Type: cell-based
# Condition: Homo sapiens, NCI-H460, 72 h, H460 cells, DMSO condition (no AKR1C3 inhibitor), read-out: CTG H460: Avg IC50 (nM) [Assay Condition: DMSO]
Measured metric: IC50

Answered cases to consult:
1. O=[N+]([O-])c1ccc2c(c1Oc1ccc(C(F)(F)F)nc1)CCC2OP(=O)(N1CC1)N1CC1 (centres unmarked) : < 10 nM
2. O=[N+]([O-])c1ccc2c(c1Oc1ccc(F)c(OCC(F)(F)F)c1)CC[C@@H]2OP(=O)(N1CC1)N1CC1 : < 10 nM
3. O=[N+]([O-])c1ccc2c(c1Oc1ccc(-c3ccc(F)cc3)cc1)OCCC2OP(=O)(N1CC1)N1CC1 (centres unmarked) : < 10 nM
4. O=[N+]([O-])c1ccc2c(c1Oc1ccc(F)c(OCC(F)(F)F)c1)CC[C@H]2OP(=O)(N1CC1)N1CC1 : < 10 nM
5. Cc1nsc(-c2cccc(Oc3c([N+](=O)[O-])ccc4c3CC[C@@H]4OP(=O)(N3CC3)N3CC3)c2F)n1 : < 10 nM
6. O=C(c1cccc(Oc2c([N+](=O)[O-])ccc3c2CCC3OP(=O)(N2CC2)N2CC2)c1)N1CCC(F)(F)C1 (centres unmarked) : < 10 nM
7. O=[N+]([O-])c1ccc2c(c1Oc1cccc(-n3cncn3)c1)CC[C@@H]2OP(=O)(N1CC1)N1CC1 : < 10 nM
8. CN(C)C(=O)c1ccc(Oc2c([N+](=O)[O-])ccc3c2CCC3OP(=O)(N2CC2)N2CC2)cc1 (single isomer, unassigned) : 10 to 50 nM
9. O=[N+]([O-])c1ccc2c(c1Oc1cccc(OCC3CC3)c1)CC[C@@H]2OP(=O)(N1CC1)N1CC1 : < 10 nM
10. COc1cc(Oc2c([N+](=O)[O-])ccc3c2CC[C@@H]3OP(=O)(N2CC2)N2CC2)cc(-c2ncccn2)c1 : < 10 nM

Under non-small cell lung cancer cell line H460: IC50 value of O=C1c2cc(Oc3cc4c(cc3[N+](=O)[O-])CCC4OP(=O)(N3CC3)N3CC3)ccc2CN1C1COC1 (centres unmarked) ?
< 10 nM

Moving on to the next molecule: CC(OP(=O)(N1C[C@H]1C)N1C[C@H]1C)c1ccc([N+](=O)[O-])c(Oc2ccc(C(=O)N(C)C)cc2)c1 (some centres unmarked)
< 10 nM

Moving on to the next molecule: Cn1ccc2cc(Oc3c([N+](=O)[O-])ccc4c3CC[C@@H]4OP(=O)(N3CC3)N3CC3)ccc2c1=O
< 10 nM

Moving on to the next molecule: COc1cc(Oc2c([N+](=O)[O-])ccc3c2CC[C@@H]3OP(=O)(N2CC2)N2CC2)cc(-c2ncc(F)cn2)c1
< 10 nM

Moving on to the next molecule: Cn1ccc2ccc(Oc3cc4c(cc3[N+](=O)[O-])CCC4OP(=O)(N3CC3)N3CC3)cc2c1=O (centres unmarked)
10 to 50 nM

Moving on to the next molecule: Cc1cc2cc(Oc3c([N+](=O)[O-])ccc4c3CCC4OP(=O)(N3CC3)N3CC3)ccc2n1C (centres unmarked)
< 10 nM

Moving on to the next molecule: O=[N+]([O-])c1ccc2c(c1Oc1cccc(-c3cccnc3)c1)CC[C@@H]2OP(=O)(N1CC1)N1CC1
< 10 nM

Moving on to the next molecule: O=[N+]([O-])c1ccc2c(c1Oc1cccc(-n3cc(C(F)F)cn3)c1)CC[C@@H]2OP(=O)(N1CC1)N1CC1
< 10 nM

Moving on to the next molecule: O=[N+]([O-])c1ccc2c(c1Oc1ccc(-c3ncc(F)cn3)cc1)CC[C@@H]2OP(=O)(N1CC1)N1CC1 (single isomer, unassigned)
< 10 nM

Moving on to the next molecule: C[C@@H]1CN1P(=O)(OC(c1ccc([N+](=O)[O-])c(Oc2cccc(C(=O)N(C)C)c2)c1)C(F)(F)F)N1C[C@H]1C (some centres unmarked)
10 to 50 nM
